Answer each item with its documented Kd.
Biological target: T1, human IL-6 (human, UniProt P05231 30-212)
T1 construct: IL-6 flowed over captured antibodies
T1 sequence (P05231 30-212 limits assumed): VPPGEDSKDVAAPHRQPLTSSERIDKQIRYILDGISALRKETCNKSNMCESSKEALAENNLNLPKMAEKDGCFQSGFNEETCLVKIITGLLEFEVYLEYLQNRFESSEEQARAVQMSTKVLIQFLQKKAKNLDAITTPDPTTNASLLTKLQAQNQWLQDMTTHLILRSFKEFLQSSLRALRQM
Experiment: SPR Biacore, supernatant Ab on Protein A chip, 37 C
State the answer as a number, implicitly in nM.

Entry anti-IL-6 antibody, heavy chain T65F, G66D / light chain M32L, M50D, N52S, M88Q (antibody, IgG1, V domains shown, Full IgG1 (Expi293); VL = variant III) VH: EVQLVESGGGLVQPGGSLRLSCAASGFTFSPFAMSWVRQAPGKGLEWVAKISPGGSWTYYSDTVFDRFTFSLDTSKSTAYLQMNSLRAEDTAVYYCARQLWGYYALDIWGQGTLVTVSS VL: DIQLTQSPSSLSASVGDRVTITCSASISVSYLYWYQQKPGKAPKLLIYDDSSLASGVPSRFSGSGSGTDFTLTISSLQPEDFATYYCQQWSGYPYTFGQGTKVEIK has what Kd?
0.291

And for anti-IL-6 antibody, heavy chain T65P, G66D / light chain M32L, M50D, N52S, M88Q (antibody, IgG1, V domains shown, Full IgG1 (Expi293); VL = variant III) VH: EVQLVESGGGLVQPGGSLRLSCAASGFTFSPFAMSWVRQAPGKGLEWVAKISPGGSWTYYSDTVPDRFTFSLDTSKSTAYLQMNSLRAEDTAVYYCARQLWGYYALDIWGQGTLVTVSS VL: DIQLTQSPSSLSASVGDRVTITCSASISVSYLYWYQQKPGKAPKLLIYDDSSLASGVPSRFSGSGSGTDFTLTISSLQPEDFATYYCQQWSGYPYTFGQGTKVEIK ?
0.601

And for anti-IL-6 antibody, heavy chain S35L, G66D / light chain M32L, M50D, N52S, M88Q (antibody, IgG1, V domains shown, Full IgG1 (Expi293); VL = variant III) VH: EVQLVESGGGLVQPGGSLRLSCAASGFTFSPFAMLWVRQAPGKGLEWVAKISPGGSWTYYSDTVTDRFTFSLDTSKSTAYLQMNSLRAEDTAVYYCARQLWGYYALDIWGQGTLVTVSS VL: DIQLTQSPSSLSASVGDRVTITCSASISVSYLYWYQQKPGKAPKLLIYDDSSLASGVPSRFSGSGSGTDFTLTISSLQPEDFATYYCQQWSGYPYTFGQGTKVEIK ?
2.59
